The compounds listed here are annotated with their IC50.
test system: wild type S. aureus strain Newman; assay: Growth inhibition IC50, Newman aerobic; assay type: cell-based; conditions: Staphylococcus aureus, NEWMAN, 9 h, read-out: IC50 Newman aerobic, 9 h of growth, aerobic; 95% confidence interval; >60 μM considered nontoxic

COMPOUND	TARGET	MEASUREMENT_NAME	VALUE_OBSERVED
Oc1c(-c2cc(-c3ccco3)[nH]n2)ccc2ccccc12 [Compound 1]	wild type S. aureus strain Newman	IC50	> 60 µM
COc1ccccc1-c1cc(-c2ccco2)[nH]n1 [Compound 1d]	wild type S. aureus strain Newman	IC50	> 60 µM
COc1ccc(-c2cc(-c3ccco3)[nH]n2)c(O)c1 [Compound 1b]	wild type S. aureus strain Newman	IC50	> 60 µM

Given the entry Cc1cc(-c2ccccc2O)n[nH]1 [Compound 2k, 2-(5-methyl-1H-pyrazol-3-yl)phenol] , report its measured IC50.
> 60 µM

Same again, this time with COc1ccc(C(=O)Nc2ccccc2-c2cc(-c3ccco3)[nH]n2)cc1 [Compound 1j]
> 60 µM

Same again, this time with O=C(Nc1ccccc1-c1cc(-c2ccco2)[nH]n1)c1cccc2ccccc12 [Compound 1k]
> 60 µM

Same again, this time with Oc1ccccc1-c1cc(-c2cccs2)[nH]n1 [Compound 2a]
> 60 µM

Same again, this time with Oc1ccccc1-c1cc(-c2ccccn2)[nH]n1 [Compound 2g]
> 60 µM

Same again, this time with COc1c(-c2cc(-c3ccco3)[nH]n2)ccc2ccccc12 [Compound 1c]
> 60 µM
